- Tested on: Fibroblast
- Method summary: Incucyte cell viability with human fibroblast; further: unitless GR value; below 1 slowed growth and below 0 cell loss
- Assay type: toxicity, cell-based
- Experimental parameters: 18 h, 10 µM, compound concentration 10 uM, replicate number 1
Endpoint label: Growth Rate
Numbers only.

Before answering, review these 5 worked examples.
• Cc1cc(C2CCCNC2)ccc1Nc1ncc(Br)c(NCc2cccc3c2C(C)(C)C(=O)N3)n1 (stereo not drawn) = 0.61
• CC(C)(C[C@H]1CN(S(=O)(=O)c2cccc(C(F)(F)F)c2)c2cc(-c3cc(F)cc(OC(F)F)c3)ccc2O1)C(=O)O = 0.49
• CCc1ccc(-c2ncn(CC3(F)CCN(C)CC3)c2-c2ccnc3[nH]ccc23)nc1 = 0.78
• CNS(=O)(=O)c1ccc(N(C)C)c(Nc2ncnc3cc(OC)c(OC)cc23)c1 = 0.69
• CC(C)(C)S(=O)(=O)c1ccc2nccc(Nc3n[nH]c4ccc(F)cc34)c2c1 = 0.67

Batch lookup, Growth Rate per entry.
1. CS(=O)(=O)O.C[C@H](NC(=O)c1cnc2n1[C@](C)(Cc1ccc(C#N)cc1)C(=O)N2c1cc(Cl)c(F)c(Cl)c1)C(=O)NC1(c2ccccn2)CC1
2. CC(C)(C)NC(=O)c1cncn1C1CCN(c2ccc(-c3nnc(C(F)(F)F)o3)cn2)CC1
3. CC(C)NC(=O)[C@H]1CCC[C@H]1Nc1nc(Nc2ccc(CN(C)C)cc2)ncc1Br.Cl

**Result**
[0.98, -0.2, -0.37]

----------
- System: HEK-293T
- Method summary: Incucyte cell viability with HEK293T; further: unitless GR value; below 1 slowed growth and below 0 cell loss
- Type: toxicity, cell-based
- Experimental parameters: human, 6 h, 10 µM, compound concentration 10 uM, replicate number 2
Entries are grouped by Growth Rate into these classes: interval 1 (below -0.2), interval 2 (-0.2 to below 0.7), interval 3 (0.7 or more)

// below: answered compounds
- COc1cc(-c2cncc(-c3cnn(C4CCNCC4)c3)c2)cc(OC)c1OC: interval 3
- Cc1nsc(Nc2cnc(C(F)(F)F)cn2)c1C(=O)Nc1ccc(O[C@H]2CCCN(CC(F)(F)F)C2)nc1: interval 1
- CN(C(=O)c1cnn2cccnc12)c1cc2c(cc1N1CCOCC1)C(=O)N(C[C@@H](F)C(C)(C)O)C2: interval 3

**Query** Note: place this compound into its band. Item: `Cn1nc(-c2ccc(C(N)=O)cc2)c2ccccc2c1=O`
**Result** interval 2

**Query** Note: place this compound into its band. Item: `Cc1c(C(=O)Nc2cccc(C(F)(F)F)c2)cc(-c2ccccc2)n1CCCN1CCOCC1.Cl`
**Result** interval 1

**Query** Note: place this compound into its band. Item: `Cc1cc(S(=O)(=O)N2CC(C)(C)c3cc(-c4ccc(C(F)(F)F)cc4)ccc32)ccc1OCC(=O)O`
**Result** interval 3

----------
- Tested on: Fibroblast
- Method summary: Incucyte cell viability with human fibroblast; further: unitless GR value; below 1 slowed growth and below 0 cell loss
- Type: toxicity, cell-based
- Experimental parameters: 6 h, 10 µM, compound concentration 10 uM, replicate number 1
Entries are grouped by Growth Rate into these classes: Low: < -0.4; Medium: ≥ -0.4 and < 0.4; High: ≥ 0.4

**Query** Note: place this molecule into its band. Item: `COc1ccccc1-c1cc(Nc2cccc(CS(N)(=O)=O)c2)ncn1`
**Result** High

**Query** Note: place this molecule into its band. Item: `O=C(CCSCc1ccco1)NNC(=O)N1Cc2ccccc2Oc2ccc(Cl)cc21`
**Result** High

**Query** Note: place this molecule into its band. Item: O=C(Nc1cccc(Nc2nccc(Nc3cccc(C(F)(F)F)c3)n2)c1)C1CC1 [ANILINOPYRIMIDINE1]
**Result** Low

**Query** Note: place this molecule into its band. Item: `CC(C)N(C(=O)C1CCOCC1)c1cc(F)c(Oc2ncc(Cn3nccn3)cc2C(F)(F)F)cc1C(=O)O`
**Result** High
